Taken from a melting point compilation (Tetko et al.; mined from patent text by program, amines drawn as free bases though some values may be those of a salt).

Recorded melting point, one value per entry.

[
  {
    "Compound": "COC(=O)C(=O)c1ccc(OCCOCCOc2ccccc2)cc1",
    "melting point": "75 to 76 °C"
  },
  {
    "Compound": "O=CC[C@@H](O)[C@H](O)[C@H](O)CO",
    "melting point": "146 to 149 °C"
  },
  {
    "Compound": "O=C(NCCCCCCOCc1ccc(OCc2ccccc2)cc1)c1cc(-c2cccc(C(F)(F)F)c2)c(O)c(-c2cccc(C(F)(F)F)c2)c1",
    "melting point": "127 to 130 °C"
  },
  {
    "Compound": "COCN1c2cc(CCl)ccc2Sc2nccnc21",
    "melting point": "125 to 126 °C"
  },
  {
    "Compound": "COC(=O)C1=C(C)Nc2nc(N3CCOCC3)nc(N3CCOCC3)c2C1c1cccc([N+](=O)[O-])c1 (centres undefined)",
    "melting point": "165 °C"
  },
  {
    "Compound": "Nc1cc(-n2cc(C(=O)O)c(=O)c3cc(F)c(Cl)nc32)c(F)cc1F",
    "melting point": "> 270 °C"
  },
  {
    "Compound": "O=C1CCCc2nc3ccccc3c(NCCCC(c3ccccc3)c3ccccc3)c21",
    "melting point": "86 to 88 °C"
  },
  {
    "Compound": "CCCn1c(CCOC)nc2c(N)nc3cc(OC4CCN(C(N)=O)CC4)ccc3c21",
    "melting point": "207 to 208 °C"
  },
  {
    "Compound": "O=C(CS(=O)Cc1ccc(Cl)c(Cl)c1)NO (centres undefined)",
    "melting point": "191 to 192 °C"
  },
  {
    "Compound": "Oc1cc(Cl)ccc1Oc1ccccc1-c1ncon1",
    "melting point": "124 to 125 °C"
  },
  {
    "Compound": "C[C@H]1[C@@H](C(C)(C)O)CCN1c1ccc(C#N)cc1C(F)(F)F",
    "melting point": "98 to 100 °C"
  },
  {
    "Compound": "CNC(=O)c1ccc(CCN2CC=C(c3c[nH]c(-c4ccc(F)cc4)c3-c3ccncc3)CC2)cc1",
    "melting point": "231 to 233 °C"
  },
  {
    "Compound": "CCC(C)C(Cl)C(=O)Oc1ccc(C(=O)O)cc1 (centres undefined)",
    "melting point": "97 to 100 °C"
  },
  {
    "Compound": "CCCc1c(OCCCOc2ccc(C(=O)OCCCN(C)C)cc2Br)ccc(C(C)=O)c1O",
    "melting point": "71 to 72 °C"
  },
  {
    "Compound": "CC(C)n1nc(-c2c(NCc3ccco3)nc(N)nc2-c2ccccc2)ccc1=O",
    "melting point": "213 to 214 °C"
  },
  {
    "Compound": "Cc1nc(C)c(C(O)=C(C#N)c2nn(-c3ccccc3)nc2C)s1",
    "melting point": "117 to 118 °C"
  },
  {
    "Compound": "COc1ccc(C=Cc2ncn(CC(O)(Cn3cncn3)c3ccc(F)cc3F)n2)cc1 (centres undefined)",
    "melting point": "150 to 152 °C"
  },
  {
    "Compound": "CC(C)N(C)C(=O)NS(=O)(=O)c1cc(-n2c(=O)cc(C(F)(F)F)n(C)c2=O)c(F)cc1Cl",
    "melting point": "145 °C"
  },
  {
    "Compound": "COC1OCC2C(O)C3CCCCC3CC12 (centres undefined)",
    "melting point": "75 to 77 °C"
  },
  {
    "Compound": "Cc1cc(C(N)=O)ncc1C(c1c(F)ccc(F)c1F)S(=O)(=O)CCC(Cl)(Cl)Cl (centres undefined)",
    "melting point": "173 to 175 °C"
  },
  {
    "Compound": "CN(C)S(=O)(=O)n1cnc(S(=O)(=O)NCc2ccc(Cl)cc2)c1",
    "melting point": "171 to 173 °C"
  },
  {
    "Compound": "O=C1c2ccccc2C(=O)N1CCN1CCCC1c1cccc(O)c1 (centres undefined)",
    "melting point": "172 to 175 °C"
  },
  {
    "Compound": "CCC(C)C1C(=O)NN(c2ccc(Cl)c(Cl)c2)C1=O (centres undefined)",
    "melting point": "118 to 120 °C"
  },
  {
    "Compound": "C#Cc1c2ccccc2nc2c(OC)ccc(OC)c12",
    "melting point": "155 to 157 °C"
  },
  {
    "Compound": "Cc1sc2nc3ccc(C#N)cn3c(=O)c2c1C",
    "melting point": "306 to 307 °C"
  },
  {
    "Compound": "CCOC(=O)c1cnc2c(F)c(F)ccc2c1Cl",
    "melting point": "114 °C"
  },
  {
    "Compound": "CC1=C(Cc2ccc(OC(F)(F)F)cc2)C(=O)c2ccccc2C1=O",
    "melting point": "64 to 65 °C"
  },
  {
    "Compound": "NC1N=C(Cl)C=C(Cl)N1c1c([N+](=O)[O-])cc([N+](=O)[O-])cc1C(F)(F)F (centres undefined)",
    "melting point": "170 to 173 °C"
  },
  {
    "Compound": "O=C(Nc1ccc(Br)cc1)c1cc2ccccc2o1",
    "melting point": "178 to 180 °C"
  },
  {
    "Compound": "CCCCC(Cn1cncn1)(C(N)=O)c1ccc(Cl)cc1 (centres undefined)",
    "melting point": "197 to 199 °C"
  },
  {
    "Compound": "COc1ccc(C(=O)Nc2ccc3ccc(Oc4c(C)cccc4C)nc3n2)cc1",
    "melting point": "174 °C"
  },
  {
    "Compound": "COC(=O)c1cc2ccc(OC)cc2n1CCN1CCC(NCc2cc3c(cn2)OCCO3)CC1",
    "melting point": "130 °C"
  },
  {
    "Compound": "COc1cccc(Nc2nc(NC(=O)C(C)(C)C)nc3[nH]c4ccccc4c23)c1",
    "melting point": "267 °C"
  },
  {
    "Compound": "CC(=O)Nc1ccc(S(=O)(=O)NCc2noc(-c3c4ccccc4nn3CCn3ccnc3)n2)cc1",
    "melting point": "160 to 161 °C"
  },
  {
    "Compound": "O=C1Nc2cccnc2N(C(=O)N2CCCC(CCCN3CCCCC3)C2)c2ccccc21 (centres undefined)",
    "melting point": "123 to 125 °C"
  },
  {
    "Compound": "CCS(=O)(=O)NCc1ccc2[nH]cc(CCCN3CCN(c4ncncc4OC)C(C)C3)c2c1 (centres undefined)",
    "melting point": "202 to 210 °C"
  },
  {
    "Compound": "CCCCCCCCCCCCCCCC(=O)N[C@@H](CSC[C@H](O)[C@H](O)CO)C(=O)O",
    "melting point": "76 to 76.5 °C"
  },
  {
    "Compound": "COc1ccc2c(c1OC)C1(COc3cc4c(cc31)OCCO4)C(=O)N2Cc1ccc(C(F)(F)F)o1 (centres undefined)",
    "melting point": "62 to 65 °C"
  },
  {
    "Compound": "O=C(O)/C=C/C(=O)/C=C/c1ccc(C(F)(F)F)cc1",
    "melting point": "192 to 195 °C"
  }
]
